Assign apparent KD of MS2 coat protein to each entry below.
Test system: MS2 coat protein
assay method text: apparent KD of MS2 coat protein; higher = weaker reporter binding
run conditions: Eterna round: R107; input ligand: theophylline 2 mM
Give just the numeric value; nM need not be written.

Quick one: give measured apparent KD of MS2 coat protein for AUGCAUAUCAGAAGGAGCGUCUUUAACAUGAGGAUCACCCAUGUAACAUUGAAUUCGAUGAGACAGGUAGGUCGCUGAAUAGUAA [SS-ArgB24]
32.8

Tell me measured apparent KD of MS2 coat protein for GAAGGAACCGGAAGGAGCGGGUCCUUAGCCACUACAUGAGGAUCACCCAUGUCCGGGAGGUCCCAGGUAGGUCGCCGGUCUUAAA [Gelece] please.
934

Dear colleague, please send me the reported apparent KD of MS2 coat protein for AAUGUAUGGCACAUGAGGAUCACCCAUGUGCGAGGACCGGUACGGCCGCCACUCGGUCAAGGGAUCUUACCUCUAUACAUUAAUG [XTryp A #22] when you can.
11.9

Give me measured apparent KD of MS2 coat protein, please, for this sequence: CACAUGAGGAUCACCCAUGUCUGAACUGAAGGAGCGCUAAAUAAGGCAGGUAGGUCGCGGAAUCCCGGGUGCAUAUGCACCCGGG [9.aB]
26.3

Return reported apparent KD of MS2 coat protein. Input sequence: ACAUGAGGAUCACCCAUGUGUCCUCGAAAACGAGGACCGGUACGGCCGCCACUCGAAAUAAGCGACAAGCGAAAAGCUUGUCGCA [Mat - Exclusion - Trytophan A - D22]
135

Retrieve apparent KD of MS2 coat protein measured for AUAAUAAUACAUGAGGAUCACCCAUGUAUGCGAGGACCGGUACGGCCGCCACUCGACCUCAUGCAUACAUGAGGAUCACCCAUGU [Same State Tryptophan A 4] and print it.
67.2

Consider the sequence UGUUUGGUGCGCGAGUGUUGGAUAAUUGAUACCAGUGUAGAUGUGCGCCCUUGGCAGCGAAUCCGAACAUGAGGAUCACCCAUGU [5.Z] . State its measured apparent KD of MS2 coat protein.
35.7

Answer with reported apparent KD of MS2 coat protein of `AAUUCCUCACAUGAGGAUCACCCAUGUGAAGGAGCGCCGAAUAAGGCAGGUAGGUCGCACAUGGAAACCGCUACGAAAGUAGCAA`
20.5

Query apparent KD of MS2 coat protein for CGCAACCCACAUGAGGAUCACCCAUGUGAAGGAGCGGCGAAUAAGCCAGGUAGGUCGCGCAUGAAUAAAUCAUGUAGGAAGCUAA [XArg-A 8 V1]
12.7

Quickly give me recorded apparent KD of MS2 coat protein for GGACCAGGGAGCGAUACCAGCUUGAGUGUGCUGGCCAGGCACAUGAGGAUCACCCAUGUAAGCCCUUGGCAGCGCUCCCUGGUCC [#1 Exclusion - Theophylline B Attempt #27 (HarryS)]
13.9

----------
Test system: MS2 coat protein
assay method text: apparent KD of MS2 coat protein; higher = weaker reporter binding
run conditions: Eterna round: R107; input ligand: tryptophan 2.4 mM
Can you tell me apparent KD of MS2 coat protein for the items I'm about to list?
Express your answer in nM, writing the number without its unit.

Please indicate apparent KD of MS2 coat protein recorded for ACACAUGAGGAUCACCCAUGUCCAAUAGAUACCAGUGAUACGGUGCACCCUUGGCAGCUGUUGCUGAGUGAUGGUUCCCUCGGAA [Same State Theophylline A GF4]
112

Answer with the recorded apparent KD of MS2 coat protein of `UGCCGAGACGUGGAUUACCCGUGUACCGAAGGAGCGCCCGAAAGGGCAGGUAGGUCGCGGAGGACAUGAGGAUCACCCAUGUUGA` only.
54.8

Indicate its recorded apparent KD of MS2 coat protein; the sequence in question is AUGCAUAUCAGAAGGAGCGUCUUUAACAUGAGGAUCACCCAUGUAACAUUGAAUUCGAUGAGACAGGUAGGUCGCUGAAUAGUAA [SS-ArgB24]
31.2

In one line, give reported apparent KD of MS2 coat protein of the entry ACAUGAGGAUCACCCAUGUAUUACCGGGAAGGAGCGCGUAAGGACGCAGGUAGGUCGCUCGGCGUCGUGCCGGAAGGCACGACGA [#1 Same State - Arginine A Attempt #22 (HarryS)] .
13.8

// fetch apparent KD of MS2 coat protein given entry GGUGUAUCCAUCGAUACCAGCCACCACCGAUAGACCACAUGAGGAUCACCCAUGUUGGGUGGCCCUUGGCAGCGGUGGCUGUGCC [Same State - Theophylline B Attempt #3 (HarryS)]
353

Tell me its apparent KD of MS2 coat protein given AGGGAACAUGAGGAUCACCCAUGUGCCGAUACCAGUGAUUUUCAGCACCCUUGGCAGCGGAACCUUUGUUAUAUUAUUCUUAGGG [theeternabot_sameState_MS2_Theo_A_25] as the entry.
41.2

Hello, please tell me recorded apparent KD of MS2 coat protein for this one: CCCAGUUAGAUCAAAGGAAUUAUACUCGAAGGAGCGUCAUAGUAGGCAGGUAGGUCGCGAGACAUGAGGAUCACCCAUGUAGAGA [azqmullin]
37.8

Could you please provide reported apparent KD of MS2 coat protein for AUAAUAAAGACGGCCGCCACUAUAAACAUGAGGAACAUGAGGAUCACCCAUGUAUGAGGAUCACCUAGGACCGGGUCAAAUAUUA [AstrosExyTryB#3] ? Thanks!
44.7

For the sequence UUCAGACAUGAGGAUCACCCAUGUACUGAAGGAGCGGAUAAAUAUCCAGGUAGGUCGCAGUAUUGAGGGUCUACUUCCAGUCUUA [Rexeesqu] , give its measured apparent KD of MS2 coat protein value.
10.1

Tell me apparent KD of MS2 coat protein reported for AGAUGUAGCGGAAGGAGCGUCAUGAGGAUCACCCAUGGCUCCCGUUGUGGGAGUUCCUUAGGUCAGGUAGGUCGCCGUUACGUCA [Omei Arg B SS B v6]
137

Using known records, supply apparent KD of MS2 coat protein for AGCACUGUGACGGCCGCCACUAUAUUAGGGUGGUAGGGUUCAUAAAUACAUGAGGAUCACCCAUGUAGGACCGGGUCUCAGUGCA [Omei Trp Exc B A v1]
21.2

Give apparent KD of MS2 coat protein for AACCGAGGCUAUCCUCUAAGACUAUGUGAUACCAGAAUAAUUUUAUUCCCUUGGCAGCAUGACAUGAGGAUCACCCAUGUCUCUU [SSTheo A #8]
26

State its apparent KD of MS2 coat protein: UGUAUGUGAUUUGAUACCAGACCAGCGGGUGUUGCAUGAGGAUCACCCAUGUAGGUUUGGGUCCCUUGGCAGCAAAUCGCAUACU [SS Theo B #24 Ms18]
523

For the sequence GGACCAGGGAGCGAUACCAGCUUGAGUGUGCUGGCCAGGCACAUGAGGAUCACCCAUGUAAGCCCUUGGCAGCGCUCCCUGGUCC [#1 Exclusion - Theophylline B Attempt #27 (HarryS)] , give its reported apparent KD of MS2 coat protein.
11.1

Output apparent KD of MS2 coat protein of GAGCUCGUGGACUGGCGUGCUCCGCUCCGUCGAGGACCGGUACGGCCGCCACUCGACAUGAGGAUCACCCAUGUGCGAGCUCGCU [#1 Exclusion - Tryptophan A Attempt #22 (HarryS)]
21.4

Quick one: give measured apparent KD of MS2 coat protein for ACUAGGCUCGGAAACGAGCCUAGGACAGAAGGAGCGUGGAUUAACACAGGUAGGUCGCUGACAUGAGGAUCACCCAUGUAUUUAU [SSAA #5]
21.9

Identify apparent KD of MS2 coat protein associated with the sequence GAGACAUCGGGAAGGAGCGCAUCCAAACCACACAUGAGGAUCACCCAUGUAUAAAUAUGCAUGCAGGUAGGUCGCCCGGUAUCCC [Tiisqure]
28.9

State its apparent KD of MS2 coat protein for this sequence: AGUGUUAUAACUGAUACCAGACCUUUGCUUAUACAUGAGGAUCACCCAUGUAAAAUGGCGGUCCCUUGGCAGCAGAGAAUACACA [#08 Same State - Theophylline B]
36.3

Check the records and state apparent KD of MS2 coat protein for AAAAUCCUACCUGAGGAUCACCCUGGUGAAGGAGCGCCCGAAAGGGCAGGUAGGUCGCACCUGAGGAUCACCCUGGUACCUAAAA [ArgAX 29 #DoubleMs2 #OpenEnded #AlternativeMS2]
61.8

Specify apparent KD of MS2 coat protein for GGGUAUGAUCCGGAUACCAGCGAACAUGAGGAUCACCCAUGUGACCUAAGAUAGGCUCUACGCCCUUGGCAGCCGCGAUCGCGUU [Same State Theophylline B GF8] and stop.
29

Supply reported apparent KD of MS2 coat protein belonging to this sequence: UAUCCACAUGAGGAUCACCCAUGUUAGGAAGGAGCGGUGAAUGCACCAGGUAGGUCGCCUAGCUGAGGACUGUCGAUGGAUUCGU [Exclusion - Arginine A (Freestyle 18)]
26

Note apparent KD of MS2 coat protein for the sequence shown: AGAAUGUAAUAUGGCAAAGUUAUAACCGAAGGAGCGCCGAAUAAGGCAGGUAGGUCGCGGAAACAUGAGGAUCACCCAUGUCCAU [Arginine A Same State; Euphoria Solution 3]
18
